Reference for the values: PubChem BioAssay (NCI)

- System: RXF 393 renal
- method: NCI-60 one-dose screen, 48 h
- particulars: 10 µM unless noted
Compounds without any hit were thinned out: in the full panel of roughly 83,000, 20% have a hit. The source made the active and inactive calls. How the source made its calls: active means growth percent below 10; inactive means the rest.
Parameter call: string, one of active, inactive

Solved entries:
# compound, target_desc, class_assignment
rows = [
    ("C=C1CCC2C(C)(COC(=O)CC)C(OC(=O)CC)CCC2(C)C1C/C=C1/C(=O)OCC1OC(=O)CC (stereo unspecified)", "RXF 393 renal", "active"),
    ("CC1CC=CCC1C1OCC(C)(C)CO1 (stereo unspecified)", "RXF 393 renal", "inactive"),
    ("CSc1nc2nc3c(nc2c(=O)n1C)C(=O)c1ccccc1C3=O", "RXF 393 renal", "active"),
    ("Cc1ccc(NC(=O)c2sc3nc4c(cc3c2N)C(=O)CCC4)cc1", "RXF 393 renal", "inactive"),
    ("CCSc1nc(-c2ccc(F)cc2)c(C#N)c(=O)[nH]1", "RXF 393 renal", "inactive"),
]

Input line: # fetch the recorded call for O=C(Nc1cccc(Cl)c1)Nc1cccc(Cl)c1 here
Output line: inactive

Input line: # fetch the recorded call for COc1cc(/C=C/C(=O)c2c(C)n([O-])c3ccc(Cl)cc3[n+]2=O)cc(OC)c1OC here
Output line: inactive

Input line: # fetch the recorded call for Nc1nc(Nc2ccccc2SSc2ccccc2Nc2nc(N)nc(-c3ccc(I)cc3)n2)nc(-c2ccc(I)cc2)n1 here
Output line: inactive
